- assay.text: protein stability index of a GFP-peptide fusion (yeast GPS) (PSI 1-4); higher = more stable; sorted into four equal gates, so the index is relative within each strain
- condition.description: doa10∆
Category key, based on recorded protein stability index: bin A (below 2), bin B (2 to below 3), bin C (3 or more)

QEGMNECPGHFGHIDLA [RPO21]; bin C
PVENIWADIFAKALDGQ [RPP1A]; bin C
FHSEPDRDENWIHVSCL [LIN1]; bin C

Which class does KFILQILQILNLMILNT [YML103C/NUP188] fall in?
bin A

Which bin should I file QRQKTYVERFETQLKVV [SMC1] under?
bin A

Hi, small favor: classify EIGILDHVDGSSEFVSQ [RRP46] by its protein stability index when you get a moment.
bin A

Where would CAERVKIQQQQPGYADL [QCR6] land among the classes by reported protein stability index?
bin C

Bin this entry: LTFQPQQQTNALNGIDI [GRR1]
bin B

Field: class (protein stability index) — entry: TKKSKLESTKAETDYVD [DSN1]
bin B

Exam item: assign LQEKNSGNLPLNELSAK [RPN13] to the correct category.
bin C

Pick a category. Item: QLFRTNKVQIMIATNVA [PRP28]
bin A

// bin(item) where item = TVPNLPTTMVTNQKDTN [ISW2]
bin A

Entry AEVQSLFQDGSASLHTR [RRP4] belongs to which category?
bin B

Using the reported protein stability index, which band applies to SQSLTSILVIVQKILPL [SWI1] ?
bin A

Looking at LIGRPPLLVPGMTPCTV [FAS1] , which class would you pick?
bin A

Form field 'band' for APTLSQTYINQELGFCE [SSN2]
bin B

Category of DINQAKDFIENVNNRFD [BRN1] , please.
bin C

Band of VEITFGKEFGDVSVKMG [RRP45] ?
bin A

Could you tell me which band AAGALFVSSGFDTSIKL [RPN14] belongs to?
bin B

Which protein stability index category applies to TNSTYNPASATDNMSGR [YJL039C/NUP192] here?
bin B

Sort into band: KIKHGSVTEIPLKLSGE [YMR129W/POM152]
bin B

Just checking, what class would you give LEGTRVSLEERTKNLVS [SMC4] here?
bin C

Using the reported protein stability index, which band applies to PYYKYLCEEYLVNNGQS [RPN7] ?
bin B

Place this sequence in its band: QVDKVTKEKVNGASVPI [RPL26A]
bin C

Which bin should I file LNNLPYKNEDVTALLEQ [YCS4] under?
bin B

State the class of the sequence shown: NRQAAASVVPSASSLVI [RPL12A]
bin A

Bin this entry: ARLDGHDFLFNTIIRDG [RPN14]
bin B
